Below, each entry is listed alongside its reported pIC50.
target_entity: Tubulin alpha chain (Sus scrofa)
Sequence (P02550 whole entry, looked up): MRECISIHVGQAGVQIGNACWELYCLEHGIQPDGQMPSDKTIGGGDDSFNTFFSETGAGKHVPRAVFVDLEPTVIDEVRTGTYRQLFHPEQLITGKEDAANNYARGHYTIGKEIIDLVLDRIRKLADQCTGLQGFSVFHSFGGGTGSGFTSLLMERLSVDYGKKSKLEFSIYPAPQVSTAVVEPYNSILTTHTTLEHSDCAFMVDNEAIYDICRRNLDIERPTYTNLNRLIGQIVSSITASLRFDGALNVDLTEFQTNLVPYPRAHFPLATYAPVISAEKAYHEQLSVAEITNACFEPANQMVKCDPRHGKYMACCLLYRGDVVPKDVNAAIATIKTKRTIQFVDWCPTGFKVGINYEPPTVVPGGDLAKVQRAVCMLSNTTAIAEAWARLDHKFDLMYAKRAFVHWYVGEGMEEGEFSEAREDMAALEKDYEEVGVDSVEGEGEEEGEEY
experimental_protocol: Inhibitory concentration required against tubulin polymerization determined using tubulin assay
pIC50: −log10 of the molar value.
attribute_measured: pIC50

                        molecular_string  censoring_sign  endpoint_value
0   O=C(O)Cc1cccc2c(O)cc(-c3ccccc3F)nc12               <            4.40
1   O=C(O)Cc1ccc2nc(-c3ccccc3F)cc(O)c2c1               =            5.28
2   O=C(O)Cc1cccc2nc(-c3ccccc3F)cc(O)c12               <            4.40
3  COC(=O)Cc1cccc2c(O)cc(-c3ccccc3F)nc12               =            5.26
4   COC(=O)Cc1cccc2c(O)cc(-c3ccccc3)nc12               =            4.52
5    O=C(O)Cc1cccc2c(O)cc(-c3ccccc3)nc12               <            4.40
6   O=C(O)Cc1ccc2c(O)cc(-c3ccccc3F)nc2c1               =            5.00
